Sourced from patent US20110135573A1

Item-by-item account of Ki
- measured on: T1, Human MMP-9 catalytic domain (BIOMOL, SE-244) (human, UniProt P14780 107-457, limits assumed)
- T1 construct: domain: catalytic domain; also called Cat-huMMP-9; cat-huMMP-9
- assay remarks: Ki,app, enzyme inhibition assay (fluorogenic peptide substrate), small-scale sFab

# binder, Ki [pM]
data = [
    ("M0256-D11 (Fab, V domains shown, sFab; variable domains only; also called M256-D11; 539A-M0256-D11) VH: EVQLLESGGGLVQPGGSLRLSCAASGFTFSHYDMWWVRQAPGKGLEWVSVIYSSGGPTFYADSVKGRFTISRDNSKNTLYLQMNSLRAEDTAVYYCAKDRAYGDYVGWNGFDYWGQGTLVTVSS VL: DIQMTQSPATLSLSPGERATLSCRASQSISSFLAWYQQKPGQAPRLLIYDASYRATGIPARFSGSGSGTDFTLTISSLEPEDYAVYYCQQRGNWPITFGQGTRLEIK", 300),
    ("M0275-D03 (Fab, V domains shown, sFab; variable domains only; also called M275-D03) VH: EVQLLESGGGLVQPGGSLRLSCAASGFTFSQYDMWWVRQAPGKGLEWVSVIYPSGTTFYADSVKGRFTISRDNSKNTLYLQMNSLRAEDTAVYYCAKDRAYGDYVGWNGFDYWGQGTLVTVSS VL: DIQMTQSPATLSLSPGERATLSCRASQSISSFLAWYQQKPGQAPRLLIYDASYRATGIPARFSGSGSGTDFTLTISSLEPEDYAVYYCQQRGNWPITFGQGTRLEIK", 600),
    ("M0273-C10 (Fab, V domains shown, sFab; variable domains only; also called M273-C10) VH: EVQLLESGGGLVQPGGSLRLSCAASGFTFSFYPMWWVRQAPGKGLEWVSYIYPSGGATFYADSVKGRFTISRDNSKNTLYLQMNSLRAEDTAVYYCAKDRAYGDYVGWNGFDYWGQGTLVTVSS VL: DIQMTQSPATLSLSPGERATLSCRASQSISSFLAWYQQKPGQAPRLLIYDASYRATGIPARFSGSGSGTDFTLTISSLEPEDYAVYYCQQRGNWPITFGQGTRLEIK", 900),
    ("M0301-A09 (Fab, V domains shown, sFab; variable domains only; also called M301-A09) VH: EVQLLESGGGLVQPGGSLRLSCAASGFTFSYYDMWWVRQAPGKGLEWVSVIYPSGGYTAYADSVKGRFTISRDNSKNTLYLQMNSLRAEDTAVYYCAKDRAYGDYVGWNGFDYWGQGTLVTVSS VL: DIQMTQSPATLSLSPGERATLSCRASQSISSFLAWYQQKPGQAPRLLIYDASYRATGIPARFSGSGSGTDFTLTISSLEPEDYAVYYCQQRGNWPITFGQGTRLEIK", 300),
    ("M0273-G07 (Fab, V domains shown, sFab; variable domains only; also called M273-G07) VH: EVQLLESGGGLVQPGGSLRLSCAASGFTFSHYDMWWVRQAPGKGLEWVSVIYPSGGPTYYADSVKGRFTISRDNSKNTLYLQMNSLRAEDTAVYYCAKDRAYGDYVGWNGFDYWGQGTLVTVSS VL: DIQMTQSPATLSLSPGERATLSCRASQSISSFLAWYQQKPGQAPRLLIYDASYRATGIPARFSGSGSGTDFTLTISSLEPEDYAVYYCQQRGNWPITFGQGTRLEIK", 600),
    ("M0274-G08 (Fab, V domains shown, sFab; variable domains only; also called M274-G08) VH: EVQLLESGGGLVQPGGSLRLSCAASGFTFSVYDMWWVRQAPGKGLEWVSVIYPSGGATYYADSVKGRFTISRDNSKNTLYLQMNSLRAEDTAVYYCAKDRAYGDYVGWNGFDYWGQGTLVTVSS VL: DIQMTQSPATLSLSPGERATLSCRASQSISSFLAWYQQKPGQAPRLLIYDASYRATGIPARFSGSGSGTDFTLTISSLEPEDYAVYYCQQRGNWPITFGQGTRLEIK", 600),
    ("M0299-A12 (Fab, V domains shown, sFab; variable domains only; also called M299-A12) VH: EVQLLESGGGLVQPGGSLRLSCAASGFTFSHYPMWWVRQAPGKGLEWVSYISSSGGGTFYADSVKGRFTISRDNSKNTLYLQMNSLRAEDTAVYYCAKDRAYGDYVGWNGFDYWGQGTLVTVSS VL: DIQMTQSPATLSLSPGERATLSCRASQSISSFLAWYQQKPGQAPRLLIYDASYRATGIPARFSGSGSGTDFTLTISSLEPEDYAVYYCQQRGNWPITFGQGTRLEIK", 200),
    ("M0307-F04 (Fab, V domains shown, sFab; variable domains only; also called M307-F04) VH: EVQLLESGGGLVQPGGSLRLSCAASGFTFSLYDMWWVRQAPGKGLEWVSVIYSSGGYTGYADSVKGRFTISRDNSKNTLYLQMNSLRAEDTAVYYCAKDRAYGDYVGWNGFDYWGQGTLVTVSS VL: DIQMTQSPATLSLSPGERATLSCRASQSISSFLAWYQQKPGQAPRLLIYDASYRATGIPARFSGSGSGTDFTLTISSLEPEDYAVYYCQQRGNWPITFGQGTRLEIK", 100),
    ("M0306-D04 (Fab, V domains shown, sFab; variable domains only; also called M306-D04) VH: EVQLLESGGGLVQPGGSLRLSCAASGFTFSLYPMWWVRQAPGKGLEWVSSIYPSGGATFYADSVKGRFTISRDNSKNTLYLQMNSLRAEDTAVYYCAKDRAYGDYVGWNGFDYWGQGTLVTVSS VL: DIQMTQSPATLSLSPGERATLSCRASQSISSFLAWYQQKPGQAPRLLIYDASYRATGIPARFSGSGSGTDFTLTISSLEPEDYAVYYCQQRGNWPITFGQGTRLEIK", 900),
    ("M0273-B10 (Fab, V domains shown, sFab; variable domains only; also called M273-B10) VH: EVQLLESGGGLVQPGGSLRLSCAASGFTFSKYAMIWVRQAPGKGLEWVSWIPPSGGYTSYADSVKGRFTISRDNSKNTLYLQMNSLRAEDTAVYYCAKDRAYGDYVGWNGFDYWGQGTLVTVSS VL: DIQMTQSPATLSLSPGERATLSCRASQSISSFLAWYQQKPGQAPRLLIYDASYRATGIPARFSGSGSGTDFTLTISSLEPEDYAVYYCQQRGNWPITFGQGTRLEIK", 700),
]
